# Test Summary: Drug metabolism in human liver microsomes; also: time not given here
# Format: ADME, Microsome
# Assay Conditions: read-out: Drug metabolism
For each of the compounds below, state its metabolised.
Quick reminder: number only, in %, skip the unit.

[Q] For the compound shown here, `Cn1c(Cc2nc(N3CCOCC3)cc(=O)[nH]2)nc2ccccc21` , give the reported metabolised.
[A] 27

[Q] Param item: `O=c1cc(N2CCOCC2)nc(Cc2nc3ccccc3n2-c2ccccc2)[nH]1`
[A] 98

[Q] Another compound to check: `Cn1c(Cc2nc(N3CCOCC3)cc(=O)[nH]2)nc2c(-c3ccccc3)cccc21`
[A] 41

[Q] What do we get for `O=c1cc(N2CCOCC2)nc(Cc2nc3cccc(-c4ccccc4)c3o2)[nH]1` ?
[A] 57

[Q] And the next one, `O=c1cc(N2CCOCC2)nc(Cc2nc3cc(F)ccc3o2)[nH]1` ?
[A] 47

---

# Assay System: Phosphatidylinositol 4,5-bisphosphate 3-kinase catalytic subunit beta isoform (Homo sapiens)
# Sequence (P42338 whole entry, canonical isoform): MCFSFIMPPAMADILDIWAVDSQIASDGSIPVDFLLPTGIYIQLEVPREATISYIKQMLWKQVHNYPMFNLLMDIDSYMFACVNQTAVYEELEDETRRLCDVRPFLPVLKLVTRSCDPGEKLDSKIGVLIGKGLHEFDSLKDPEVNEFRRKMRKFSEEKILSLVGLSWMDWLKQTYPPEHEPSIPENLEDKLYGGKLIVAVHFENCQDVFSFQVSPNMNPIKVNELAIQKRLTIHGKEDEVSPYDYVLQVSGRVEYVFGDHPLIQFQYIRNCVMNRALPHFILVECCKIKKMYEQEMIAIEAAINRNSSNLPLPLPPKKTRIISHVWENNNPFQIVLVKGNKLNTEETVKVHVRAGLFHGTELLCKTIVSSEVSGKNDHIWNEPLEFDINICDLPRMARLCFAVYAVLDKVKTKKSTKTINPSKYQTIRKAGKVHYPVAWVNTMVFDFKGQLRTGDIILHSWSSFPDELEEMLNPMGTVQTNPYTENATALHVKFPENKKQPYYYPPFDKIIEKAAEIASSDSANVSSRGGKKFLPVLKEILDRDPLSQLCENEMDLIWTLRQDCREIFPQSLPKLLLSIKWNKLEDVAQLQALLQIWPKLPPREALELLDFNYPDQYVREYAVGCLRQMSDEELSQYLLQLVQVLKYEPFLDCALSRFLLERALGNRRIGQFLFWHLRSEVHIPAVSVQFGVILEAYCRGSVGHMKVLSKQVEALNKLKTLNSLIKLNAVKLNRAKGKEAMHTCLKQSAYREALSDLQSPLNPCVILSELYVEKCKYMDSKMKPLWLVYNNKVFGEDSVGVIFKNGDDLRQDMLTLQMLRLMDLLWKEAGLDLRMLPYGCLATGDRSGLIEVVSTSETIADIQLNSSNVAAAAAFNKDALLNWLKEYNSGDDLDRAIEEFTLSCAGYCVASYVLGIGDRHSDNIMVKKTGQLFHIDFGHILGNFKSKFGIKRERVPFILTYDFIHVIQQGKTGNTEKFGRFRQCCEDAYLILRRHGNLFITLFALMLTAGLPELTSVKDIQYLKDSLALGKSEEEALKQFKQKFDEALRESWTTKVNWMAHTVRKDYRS
# Test Summary: Inhibition of N-terminus poly-His tagged human PI3Kbeta expressed in baculovirus infected insect […] cells coexpressing p85alpha using PI(4,5)P2 as substrate preincubated with compound for 15 mins measured after 10 mins by HTRF assay
For each entry below, report its IC50 value.
Write the number in nM without appending the unit.

[Q] Quick one: IC50 for `Cc1cccc2nc(Cc3nc(N4CCOCC4)cc(=O)[nH]3)oc12` ?
[A] 425

[Q] Same question, `O=c1cc(N2CCOCC2)nc(Cc2nc3cccc(F)c3o2)[nH]1` this time
[A] 373

[Q] Same for `CCn1c(Cc2nc(N3CCOCC3)cc(=O)[nH]2)nc2ccccc21`
[A] 72

[Q] Param item: `O=c1cc(N2CCOCC2)nc(Cc2nc3c(F)cccc3o2)[nH]1`
[A] 567

[Q] What do we get for `O=c1cc(N2CCOCC2)nc(Cc2nc3cc(Br)ccc3[nH]2)[nH]1` ?
[A] 91

[Q] Same question for `Cn1c(Cc2nc(N3CCOCC3)cc(=O)[nH]2)nc2ccc(-c3ccccc3)cc21` please.
[A] 3410

[Q] How about this molecule: `O=C(Cc1nc(N2CCOCC2)cc(=O)[nH]1)Nc1ccccc1`
[A] 42

[Q] Same thing, different molecule: `O=c1cc(N2CCOCC2)nc(Cc2nc3ccc(F)cc3[nH]2)[nH]1`
[A] 30

[Q] Here is the next molecule: `Cn1c(Cc2nc(N3CCOCC3)cc(=O)[nH]2)nc2cc(F)ccc21`
[A] 82

[Q] Now consider `O=c1cc(N2CCOCC2)nc(Cc2nc3ccc(C(F)(F)F)cc3[nH]2)[nH]1` .
[A] 386

[Q] Okay, and `Cn1c(Cc2nc(N3CCOCC3)cc(=O)[nH]2)nc2ccccc21` ?
[A] 99

[Q] Ok, now `O=c1cc(N2CCOCC2)nc(Cc2nc3cc(F)ccc3o2)[nH]1`
[A] 46

[Q] Please give the result for `O=c1cc(N2CCOCC2)nc(Cc2nc3ccccc3n2Cc2ccccc2)[nH]1` too.
[A] 111

[Q] Another: `O=c1cc(N2CCOCC2)nc(Cc2nc3c(-c4ccncc4)cccc3o2)[nH]1`
[A] 158

[Q] Please give the result for `O=c1cc(N2CCOCC2)nc(Cc2nc3cc(F)ccc3n2C2CC2)[nH]1` too.
[A] 29

[Q] Proceed to `O=c1cc(N2CCOCC2)nc(Cc2nc3c(-c4ccccc4)cccc3o2)[nH]1`
[A] 19

[Q] # iterate: `Cc1ccc2oc(Cc3nc(N4CCOCC4)cc(=O)[nH]3)nc2c1`
[A] 960

[Q] Also `O=c1cc(N2CCOCC2)nc(Cc2nc3c(-c4cccs4)cccc3o2)[nH]1` ?
[A] 46

[Q] Try `Cc1ccc2[nH]c(Cc3nc(N4CCOCC4)cc(=O)[nH]3)nc2c1` next.
[A] 450

[Q] Continue with `O=c1cc(N2CCOCC2)nc(Cc2nc3ccccc3[nH]2)[nH]1`
[A] 158

[Q] Next: `Cc1ccc2nc(Cc3nc(N4CCOCC4)cc(=O)[nH]3)oc2c1`
[A] 526
